Catalogue of compounds with associated inhibition at 1.14 µM
Biological target: human full-length recombinant PKC βII (Homo sapiens, UniProt P05771)
Construct: Active human full-length recombinant PKC βII; purchased Invitrogen GmbH, Darmstadt, Germany
Sequence (P05771 1-673 isoform P05771-2): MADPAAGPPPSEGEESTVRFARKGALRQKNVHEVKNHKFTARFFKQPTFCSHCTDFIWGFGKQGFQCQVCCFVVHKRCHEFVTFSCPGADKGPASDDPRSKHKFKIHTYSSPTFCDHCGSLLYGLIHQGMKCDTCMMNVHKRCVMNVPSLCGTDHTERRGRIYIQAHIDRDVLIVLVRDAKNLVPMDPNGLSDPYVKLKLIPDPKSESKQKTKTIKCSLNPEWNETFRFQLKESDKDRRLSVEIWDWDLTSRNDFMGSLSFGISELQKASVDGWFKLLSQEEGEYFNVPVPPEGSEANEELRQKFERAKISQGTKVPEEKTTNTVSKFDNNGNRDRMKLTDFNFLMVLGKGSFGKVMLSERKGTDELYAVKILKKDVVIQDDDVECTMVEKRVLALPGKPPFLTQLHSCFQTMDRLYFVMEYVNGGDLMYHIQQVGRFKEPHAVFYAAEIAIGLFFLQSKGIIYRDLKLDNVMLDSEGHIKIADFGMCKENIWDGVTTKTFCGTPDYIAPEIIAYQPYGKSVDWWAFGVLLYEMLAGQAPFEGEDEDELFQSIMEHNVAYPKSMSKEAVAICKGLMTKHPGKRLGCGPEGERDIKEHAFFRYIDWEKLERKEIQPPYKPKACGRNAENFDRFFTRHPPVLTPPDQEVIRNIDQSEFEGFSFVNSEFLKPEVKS
Test: Determination of PKC βII inhibition (Caliper mobility shift kinase assay)
Assay type: biochemical
Conditions: final compound concentration 1.14 μM (±0.15 μM); 60 min incubation at 32° C.
// units = %; emit number, no label

[ask] Hi! What's the reported inhibition at 1.14 µM for COCCCN1CC(C)(C)N(Cc2cc(-c3ccc(O)cc3F)nc3[nH]nc(C)c23)CC1(C)C on human full-length recombinant PKC βII (Homo sapiens, UniProt P05771)?
[reply] 103

[ask] Look up inhibition at 1.14 µM with human full-length recombinant PKC βII (Homo sapiens, UniProt P05771) for this compound: COCCCN1CC(C)(C)N(Cc2cc(-c3ccc(O)cc3)nc3[nH]nc(C)c23)CC1C (centres unmarked)
[reply] 94

[ask] Form field: inhibition at 1.14 µM recorded for Oc1ccc(-c2cc(CN3CCNCC3)c3c(C4CC4)n[nH]c3n2)cc1 with human full-length recombinant PKC βII (Homo sapiens, UniProt P05771) (enter value)
[reply] 53

[ask] GET /values?readout=inhibition at 1.14 µM&system=human full-length recombinant PKC βII (Homo sapiens, UniProt P05771)&item= Cc1n[nH]c2nc(-c3ccc(O)cc3F)cc(CN3C[C@H](C)NCC3(C)C)c12
[reply] 94

[ask] Could you share what inhibition at 1.14 µM was measured for Cc1n[nH]c2nc(-c3ccc(O)cc3)cc(CNC3CCNCC3(C)C)c12 (centres unmarked) , tested on human full-length recombinant PKC βII (Homo sapiens, UniProt P05771)?
[reply] 92

[ask] Reported inhibition at 1.14 µM for human full-length recombinant PKC βII (Homo sapiens, UniProt P05771), given Cc1n[nH]c2nc(-c3ccc(O)cc3F)cc(CN3CC(C)(C)OCC3(C)C)c12 ?
[reply] 85

[ask] Form field: inhibition at 1.14 µM recorded for Cc1n[nH]c2nc(-c3ccc(O)cc3)cc(CN3CCN[C@H](CC(F)(F)F)C3)c12 with human full-length recombinant PKC βII (Homo sapiens, UniProt P05771) (enter value)
[reply] 81

[ask] API: value(readout= inhibition at 1.14 µM, system= human full-length recombinant PKC βII (Homo sapiens, UniProt P05771), query= CCC1(CC)CN(Cc2cc(-c3ccc(O)cc3Cl)nc3[nH]nc(C)c23)C(C)(C)CN1 )
[reply] 96
